test.system: T1, recombinant human IL-23 (p19/p40 heterodimer) (human, UniProt Q9NPF7 20-189; P29460 23-328)
T1 sequence (looked up) 1: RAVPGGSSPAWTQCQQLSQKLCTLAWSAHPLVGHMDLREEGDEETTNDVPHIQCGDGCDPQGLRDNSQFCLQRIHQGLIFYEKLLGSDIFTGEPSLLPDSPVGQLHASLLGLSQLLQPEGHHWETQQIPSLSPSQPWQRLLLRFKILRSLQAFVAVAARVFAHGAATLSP
T1 sequence (looked up) 2: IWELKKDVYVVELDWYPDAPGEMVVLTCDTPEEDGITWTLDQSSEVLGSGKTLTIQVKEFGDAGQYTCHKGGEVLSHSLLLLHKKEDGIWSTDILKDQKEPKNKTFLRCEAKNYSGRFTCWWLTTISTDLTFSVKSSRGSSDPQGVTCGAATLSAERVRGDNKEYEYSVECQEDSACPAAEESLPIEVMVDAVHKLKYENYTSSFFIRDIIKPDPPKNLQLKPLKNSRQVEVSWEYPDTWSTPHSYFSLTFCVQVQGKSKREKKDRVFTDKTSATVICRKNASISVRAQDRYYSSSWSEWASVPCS
protocol.description: cell-based or functional assay
# maps each entry to its IC50 pM, STAT3 activation in DB reporter cells
Reply numerically in pM, unit not repeated.

Some binders with known IC50 pM, STAT3 activation in DB reporter cells results, for comparison:
Hu-6 18006B (purified from hybridoma) (antibody, V domains shown) VH: QVQLVQSGAEVKKPGASVKVSCKTSGYTFTYYGISWVRQAPGQGLEWMGLISAYNGNTNYGQKVQGRVTMTTDTSTSTAYMELRSLRSDDTAVYYCVTENINWRDAFDIWGQGTMVTVSS VL: EIVLTQSPDFQSVTPKEKVTITCRASQTIGSSLHWYQQKPDQSPKLLIKYASQSISGVPSRFSGSGSGTDFTLTINSLEAEDAAAYYCHQSSSLPYTFGQGTKLEIK :: 60.5
Hu-4 18006B* (recombinant, mIgG2a) (antibody, V domains shown) VH: QVHLVQSGAEVKKPGASVKVSCKASGYTFSSYGINWVRQAPGQGLEWMGWISAYSGNTDYSQHLQGRVTMTTDTSTNTAYMELRSLRSDDTAVYYCARASANWYDYFDPWGQGTLVTVSS VL: EIVLTQSPDFQSVTPKEKVTITCRASQTIGGSLHWYQQKPDQSPKLLITYASQSFSGVPSRFSGSGSGTDFTLTIHSLEAEDAATYYCHQSSILPYTFGQGTKLEIK :: 265
Hu-2 18006B (antibody, V domains shown, Purified from hybridoma (Trianni mice); also called H-2 1800B (mIgG1)) VH: QVQLVQSGAEVKKPGASVKVSCKASGYTFTTYGISWVRQAPGQGLEWMGWISAYNGNTKYAQKLQGRVTMTTDTSTSTAYMELRSLRSDDTAVYYCAREWRAFYYYGLDVWGQGTTVTVSS VL: DIVMTQTPLSSPVTLGQPASISCRSSQSLEHSDGNTYLSWLQQRPNQPPRLLIYKVSNRFSGVPDRFSGSGAGTDFTLKISRVEAEDVGVYYCTQATQFPLTFGGGTKVEIK :: 158

Then this binder:
Please give the measured IC50 pM, STAT3 activation in DB reporter cells for this binder: Hu-6 18006B* (recombinant mIgG2a) (antibody, V domains shown) VH: QVQLVQSGAEVKKPGASVKVSCKTSGYTFTYYGISWVRQAPGQGLEWMGLISAYNGNTNYGQKVQGRVTMTTDTSTSTAYMELRSLRSDDTAVYYCVTENINWRDAFDIWGQGTMVTVSS VL: EIVLTQSPDFQSVTPKEKVTITCRASQTIGSSLHWYQQKPDQSPKLLIKYASQSISGVPSRFSGSGSGTDFTLTINSLEAEDAAAYYCHQSSSLPYTFGQGTKLEIK
35.2
